# testTarget: human Claudin-6 (CLDN6) (human) (UniProt P56747)
# methodSummary: FACS, limiting dilution, ARK2 cells
recordedEndpoint: FACS signal at 8 nM
// no unit, no text: just the number

AB S2 (antibody, V domains shown) VH: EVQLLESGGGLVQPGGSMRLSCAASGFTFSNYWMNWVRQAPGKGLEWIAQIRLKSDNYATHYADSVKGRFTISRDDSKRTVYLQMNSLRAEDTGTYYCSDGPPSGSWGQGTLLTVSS VL: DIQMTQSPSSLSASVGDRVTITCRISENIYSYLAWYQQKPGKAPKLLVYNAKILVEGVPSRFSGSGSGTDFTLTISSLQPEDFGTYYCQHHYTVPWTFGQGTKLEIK :: 4840
AB S9 (antibody, V domains shown) VH: QVQLVQSGAEVKKPGASVKMSCKASGYTFTTYTIHWVRQAPGQGLEWIGVINPSSGYTDYAQKFQGRVTLTADKSTSTVYMELSSLRSEDTAVYFCANGDYYVGYWGQGTLVTVSS VL: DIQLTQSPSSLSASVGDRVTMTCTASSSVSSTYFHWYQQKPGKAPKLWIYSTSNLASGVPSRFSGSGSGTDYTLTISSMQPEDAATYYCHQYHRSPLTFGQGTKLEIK :: 54600
AB S4 (antibody, V domains shown) VH: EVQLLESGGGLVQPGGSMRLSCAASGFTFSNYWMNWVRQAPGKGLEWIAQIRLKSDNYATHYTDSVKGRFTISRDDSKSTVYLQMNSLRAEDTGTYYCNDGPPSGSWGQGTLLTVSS VL: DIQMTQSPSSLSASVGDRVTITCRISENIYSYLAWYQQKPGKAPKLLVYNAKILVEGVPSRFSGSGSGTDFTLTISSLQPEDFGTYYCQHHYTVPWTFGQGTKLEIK :: 1720

Now for a further binder.
Which measured FACS signal at 8 nM value corresponds to AB S1 (antibody, V domains shown) VH: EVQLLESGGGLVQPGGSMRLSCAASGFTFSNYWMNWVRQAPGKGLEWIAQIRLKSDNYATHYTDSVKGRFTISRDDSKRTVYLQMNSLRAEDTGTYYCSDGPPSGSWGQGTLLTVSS VL: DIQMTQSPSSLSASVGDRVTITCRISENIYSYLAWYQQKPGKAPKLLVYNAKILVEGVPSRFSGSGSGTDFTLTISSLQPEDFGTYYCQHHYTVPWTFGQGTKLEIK ?
3850
